test: qHTS assay to identify small molecule agonists of the AP-1 signaling pathway - cell viability counter screen (AID 1159525); settings: ME-180 (cervical carcinoma) AP-1-bla cells viability, ATP luminescence, 5 h; series mostly up to 76.8 µM; note: nearly all actives have a fitted effect of over 55% in size
Inconclusive results are not listed. Activity calls are given as the source filed them. Calls come from the whole dose curve.
MEASUREMENT_NAME: outcome

> print(dat)
                              record.smiles  endpoint.result
1                  C[C@H]1CNCCc2ccc(Cl)cc21         inactive
2                                C=CC(=O)OC         inactive
3                        CCCCCC[N+](=O)[O-]         inactive
4  C[C@]12CC[C@H]3[C@@H](CCC4=CC(=O)CC[C@@H]43)[C@@H]1CC[C@@H]2OC(=O)CCC1CCCCC1         inactive
5                   C(=NC1CCCCC1)=NC1CCCCC1         inactive
6  CC[C@H]1C[C@H]2[C@@H]3CCC4=CC(=O)CC[C@@H]4[C@H]3CC[C@]2(C)[C@H]1O         inactive

---

test: qHTS RealTime-Glo MT Cell Viability Assay in HEK293 cells - 24 hour (AID 1224886); settings: RealTime-Glo luminescence; series mostly up to 76.8 µM; note: nearly all actives have a fitted effect of over 50% in size
Results filed as inconclusive are left out. Calls of active or inactive are those of the source. Calls come from the whole dose curve; as a rule, active = well fitted cell-killing curve with a large enough effect in the repeat runs; inconclusive = weak or mixed curves, or effect the other way; inactive = flat fitted curve, though single readings scatter.
Possible outcomes: 1 (active), 0 (inactive)

> print(dat)
                                    compound  cat
 1                            Cn1sc(Cl)cc1=O    0
 2  CCCCC(O)(Cn1cncn1)c1ccc(Cl)cc1Cl (stereo not drawn)    1
 3                               IC(I)=C(I)I    1
 4  O=C1c2ccccc2C(=O)C1C(=O)C(c1ccccc1)c1ccccc1    0
 5  C=CC[C@]1(O)CC[C@H]2[C@@H]3CCC4=CC(=O)CCC4=C3C=C[C@@]21C    1
 6                            CC(=O)CCC(C)=O    0
 7       CC(=O)NC1CCSC1=O (stereo not drawn)    0
 8                       CCOP(=O)(OCC)SCCSCC    0
 9  CCOc1nc(F)cc2nc(S(=O)(=O)Nc3c(Cl)cccc3Cl)nn12    0
10                           Cc1ccc2ccccc2c1    0
11  CCCN(CC1CC1)c1c([N+](=O)[O-])cc(C(F)(F)F)cc1[N+](=O)[O-]    0
12  CN1C(=O)NC(=O)C(C)(C2=CCCCC2)C1=O (stereo not drawn)    0
13                               Sc1ccccc1Cl    0

---

molecular target: Cytochrome P450 2C9 (Homo sapiens) (UniProt P11712); test: Cytochrome P450 Family 2 Subfamily C Member 9 (CYP2C9) small molecule antagonists: luciferase reporter qHTS assay (AID 1671198); details: P450-Glo CYP2C9 enzyme assay, luciferin luminescence; series mostly up to 115 µM; note: nearly all actives have a fitted effect of over 50% in size
Sequence (P11712 whole entry, looked up): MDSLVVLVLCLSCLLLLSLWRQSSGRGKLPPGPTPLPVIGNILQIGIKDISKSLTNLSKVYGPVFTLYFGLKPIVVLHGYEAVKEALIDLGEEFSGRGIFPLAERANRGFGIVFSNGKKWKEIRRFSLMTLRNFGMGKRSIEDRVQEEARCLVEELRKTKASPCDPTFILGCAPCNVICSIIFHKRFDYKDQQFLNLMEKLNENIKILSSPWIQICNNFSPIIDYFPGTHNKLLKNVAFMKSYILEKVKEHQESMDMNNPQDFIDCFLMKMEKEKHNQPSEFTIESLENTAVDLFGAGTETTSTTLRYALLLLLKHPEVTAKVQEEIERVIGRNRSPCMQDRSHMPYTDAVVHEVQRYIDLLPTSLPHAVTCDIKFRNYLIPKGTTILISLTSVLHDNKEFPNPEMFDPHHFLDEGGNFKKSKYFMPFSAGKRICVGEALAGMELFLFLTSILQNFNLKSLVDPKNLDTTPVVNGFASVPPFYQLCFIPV
Records with an inconclusive call do not appear. Active and inactive are the calls of the source. The call rests on the fitted dose curve; in most records, active means well fitted inhibition curve with a large enough effect in the repeat runs; inconclusive means weak or mixed curves; inactive means no such curve, though single readings can be large or run the other way.
Possible outcomes: true (1) for active, false (0) for inactive

> print(dat)
                                    compound                       experimental.system        cat
 1                c1cc2ccc3cccc4ccc(c1)c2c34  Cytochrome P450 2C9 (Homo sapiens) (UniProt P11712)   true (1)
 2                               C=CCOC(C)=O  Cytochrome P450 2C9 (Homo sapiens) (UniProt P11712)   true (1)
 3                               ClC=C(Cl)Cl  Cytochrome P450 2C9 (Homo sapiens) (UniProt P11712)  false (0)
 4                        O=C(CBr)OCc1ccccc1  Cytochrome P450 2C9 (Homo sapiens) (UniProt P11712)   true (1)
 5    O=C1CN=C(c2ccccc2)c2cc(Cl)ccc2N1CC1CC1  Cytochrome P450 2C9 (Homo sapiens) (UniProt P11712)   true (1)
 6  COc1cc(CC(C)N)cc2c1OCO2 (centres undefined)  Cytochrome P450 2C9 (Homo sapiens) (UniProt P11712)  false (0)
 7        COc1ccc(-c2ccccc2)cc1NNC(=O)OC(C)C  Cytochrome P450 2C9 (Homo sapiens) (UniProt P11712)   true (1)
 8                        CCOP(=S)(OCC)SCSCC  Cytochrome P450 2C9 (Homo sapiens) (UniProt P11712)   true (1)
 9                           Cc1cc(=O)[nH]o1  Cytochrome P450 2C9 (Homo sapiens) (UniProt P11712)   true (1)
10   COP(=O)(OC)O/C(=C/Cl)c1cc(Cl)c(Cl)cc1Cl  Cytochrome P450 2C9 (Homo sapiens) (UniProt P11712)   true (1)
11  CCOc1ccc(C(C)(C)COCc2cccc(Oc3ccccc3)c2)cc1  Cytochrome P450 2C9 (Homo sapiens) (UniProt P11712)   true (1)
12  NS(=O)(=O)C(F)(F)C(F)(F)C(F)(F)C(F)(F)C(F)(F)C(F)(F)C(F)(F)C(F)(F)F  Cytochrome P450 2C9 (Homo sapiens) (UniProt P11712)   true (1)
13                           ClCc1cccc(Cl)c1  Cytochrome P450 2C9 (Homo sapiens) (UniProt P11712)  false (0)
14                                  ClCCCCBr  Cytochrome P450 2C9 (Homo sapiens) (UniProt P11712)  false (0)
15  CC(C)(C)c1cc([N+](=O)[O-])cc([N+](=O)[O-])c1O  Cytochrome P450 2C9 (Homo sapiens) (UniProt P11712)   true (1)
16                                        II  Cytochrome P450 2C9 (Homo sapiens) (UniProt P11712)   true (1)
17      CCOP(=O)(OCC)Oc1ccc([N+](=O)[O-])cc1  Cytochrome P450 2C9 (Homo sapiens) (UniProt P11712)   true (1)
18                            CC(=O)CCC(C)=O  Cytochrome P450 2C9 (Homo sapiens) (UniProt P11712)  false (0)
19                   O=[N+]([O-])c1ccccc1CCl  Cytochrome P450 2C9 (Homo sapiens) (UniProt P11712)  false (0)
20                       COC(=O)C(Cl)C(=O)OC  Cytochrome P450 2C9 (Homo sapiens) (UniProt P11712)  false (0)
21                              Cc1ccccc1CCl  Cytochrome P450 2C9 (Homo sapiens) (UniProt P11712)  false (0)
22  BrCC(Br)C1CCC(Br)C(Br)C1 (centres undefined)  Cytochrome P450 2C9 (Homo sapiens) (UniProt P11712)   true (1)
23    O=C(O)CC(Cl)C(=O)O (centres undefined)  Cytochrome P450 2C9 (Homo sapiens) (UniProt P11712)  false (0)
24  CCCCCCCCCCOC(=O)c1ccccc1C(=O)OCCCCCCCCCC  Cytochrome P450 2C9 (Homo sapiens) (UniProt P11712)  false (0)
25  O=C1C(Cl)C(CCl)CN1c1cccc(C(F)(F)F)c1 (centres undefined)  Cytochrome P450 2C9 (Homo sapiens) (UniProt P11712)  false (0)
26                              N#CCc1ccccc1  Cytochrome P450 2C9 (Homo sapiens) (UniProt P11712)  false (0)
27  CCCC(Cn1cncn1)c1ccc(Cl)cc1Cl (centres undefined)  Cytochrome P450 2C9 (Homo sapiens) (UniProt P11712)   true (1)
28                                  NC(=O)CI  Cytochrome P450 2C9 (Homo sapiens) (UniProt P11712)   true (1)
29                       CCOP(=O)(OCC)SCCSCC  Cytochrome P450 2C9 (Homo sapiens) (UniProt P11712)  false (0)
30  CCCCCCCCCC(=O)O[C@H]1CC[C@H]2[C@@H]3CCC4=CC(=O)CC[C@@H]4[C@H]3CC[C@]12C  Cytochrome P450 2C9 (Homo sapiens) (UniProt P11712)   true (1)
31                [CH3][Sn]([CH3])([Cl])[Cl]  Cytochrome P450 2C9 (Homo sapiens) (UniProt P11712)  false (0)
32  CN1C(=O)NC(=O)C(C)(C2=CCCCC2)C1=O (centres undefined)  Cytochrome P450 2C9 (Homo sapiens) (UniProt P11712)  false (0)
33              CCCCN(N=O)C(=N)N[N+](=O)[O-]  Cytochrome P450 2C9 (Homo sapiens) (UniProt P11712)  false (0)
34                               ClCc1ccccc1  Cytochrome P450 2C9 (Homo sapiens) (UniProt P11712)  false (0)
35                             C=C(C#N)CCC#N  Cytochrome P450 2C9 (Homo sapiens) (UniProt P11712)  false (0)
36  CC(=O)c1cc2c(cc1C)C(C)(C)C(C)CC2(C)C (centres undefined)  Cytochrome P450 2C9 (Homo sapiens) (UniProt P11712)   true (1)
37                       O=S(=O)(Cl)c1ccccc1  Cytochrome P450 2C9 (Homo sapiens) (UniProt P11712)  false (0)
38  CC(C)(C)C(O)C(Oc1ccc(Cl)cc1)n1cncn1 (centres undefined)  Cytochrome P450 2C9 (Homo sapiens) (UniProt P11712)   true (1)
39                   C(=NC1CCCCC1)=NC1CCCCC1  Cytochrome P450 2C9 (Homo sapiens) (UniProt P11712)  false (0)
40                        Nc1nc(=S)[nH][nH]1  Cytochrome P450 2C9 (Homo sapiens) (UniProt P11712)   true (1)
41                               IC(I)=C(I)I  Cytochrome P450 2C9 (Homo sapiens) (UniProt P11712)   true (1)
42  O=[N+]([O-])c1cc(C(F)(F)F)cc([N+](=O)[O-])c1Cl  Cytochrome P450 2C9 (Homo sapiens) (UniProt P11712)   true (1)
43                              O=NN1CCCCCC1  Cytochrome P450 2C9 (Homo sapiens) (UniProt P11712)  false (0)
44  CC/C(=N\OC/C=C/Cl)C1=C(O)CC(C2CCOCC2)CC1=O (centres undefined)  Cytochrome P450 2C9 (Homo sapiens) (UniProt P11712)   true (1)
45  CCCCC(O)(Cn1cncn1)c1ccc(Cl)cc1Cl (centres undefined)  Cytochrome P450 2C9 (Homo sapiens) (UniProt P11712)   true (1)
46    OC(c1ccc(Cl)cc1)(c1ccc(Cl)cc1)c1cccnc1  Cytochrome P450 2C9 (Homo sapiens) (UniProt P11712)   true (1)
47  O=C1c2ccccc2C(=O)C1C(=O)C(c1ccccc1)c1ccccc1  Cytochrome P450 2C9 (Homo sapiens) (UniProt P11712)   true (1)
48                         NC(=O)C(Cl)(Cl)Cl  Cytochrome P450 2C9 (Homo sapiens) (UniProt P11712)  false (0)
49                            CCCCNP(N)(N)=S  Cytochrome P450 2C9 (Homo sapiens) (UniProt P11712)   true (1)
50     CNC(C)Cc1ccccc1OC (centres undefined)  Cytochrome P450 2C9 (Homo sapiens) (UniProt P11712)  false (0)
51  Cc1c(F)c(F)c(COC(=O)C2C(/C=C(\Cl)C(F)(F)F)C2(C)C)c(F)c1F (centres undefined)  Cytochrome P450 2C9 (Homo sapiens) (UniProt P11712)   true (1)
52                                [O-][Cl+]O  Cytochrome P450 2C9 (Homo sapiens) (UniProt P11712)  false (0)
53           ClCC(Br)CBr (centres undefined)  Cytochrome P450 2C9 (Homo sapiens) (UniProt P11712)  false (0)
54                                  BrCCCCBr  Cytochrome P450 2C9 (Homo sapiens) (UniProt P11712)  false (0)
55     CCOP(=O)(OCC)O/C(=C/Cl)c1ccc(Cl)cc1Cl  Cytochrome P450 2C9 (Homo sapiens) (UniProt P11712)   true (1)
56                    O=C(Nc1ccccc1)Nc1cnns1  Cytochrome P450 2C9 (Homo sapiens) (UniProt P11712)   true (1)
57                         ClP(Cl)(Cl)(Cl)Cl  Cytochrome P450 2C9 (Homo sapiens) (UniProt P11712)  false (0)
58  CC(O)(CS(=O)(=O)c1ccc(F)cc1)C(=O)Nc1ccc(C#N)c(C(F)(F)F)c1 (centres undefined)  Cytochrome P450 2C9 (Homo sapiens) (UniProt P11712)   true (1)
59  CCOP(=S)(Oc1ccc([N+](=O)[O-])cc1)c1ccccc1 (centres undefined)  Cytochrome P450 2C9 (Homo sapiens) (UniProt P11712)   true (1)
